System: UACC-257 melanoma
Assay: NCI tumour cell line growth inhibition, 48 h; in the data active means GI50 below about 0.43 µM; inactive means the rest
Possible outcomes: active, inactive

1. COc1cc(C(=O)O[C@H](C(=O)NCCN(C)CCNC(=O)[C@@H](OC(=O)c2cc(OC)cc3c(C)cccc23)[C@]2(C)CO2)[C@]2(C)CO2)c2cccc(C)c2c1 = active
2. COC(=O)Nc1nc2ccc(C(=O)c3ccccc3)cc2[nH]1 = inactive
3. C=C1C(=O)O[C@H]2[C@H]1CC/C(COC(=O)CCCc1c[nH]c3ccccc13)=C\CC[C@@]1(C)O[C@@H]21 = inactive
4. O=C(CI)Nc1ccc(O)c2ccccc12 = inactive
5. C=C1C(=O)O[C@H]2[C@H]1CC/C(Cn1cc(-c3ccc(F)cc3)nn1)=C\CC[C@@]1(C)O[C@@H]21 = inactive
6. O=C1C=Cc2c1ccc1ccccc21 = inactive
7. N#C/C(=N\Nc1ccccc1)C(=O)Nc1cc(-c2ccccc2)nn1-c1ccccc1 = inactive
8. Cc1nc2ccccn2c1NC(=O)NNC(=S)Nc1ccc(F)cc1 = inactive
9. NC(N)=NC(N)=NCCCc1ccco1 = inactive
10. COc1ccc(/C=C2\SC(=Nc3ccccc3)NC2=O)cc1 = inactive
11. CCCCCCCCCCCCCC[n+]1ccc(C(N)=O)cc1 = inactive
12. CCCCCCCCCCCCCCCCOP(=O)([O-])OCC[N+](C)(C)C = inactive
13. CCC1(OC(=O)CN)C(=O)OCc2c1cc1n(c2=O)Cc2cc3ccccc3nc2-1 (centres undefined) = active
14. ClCc1ccccc1Cn1cnc2c(Cl)ncnc21 = inactive
15. O=C1C(=O)c2ccccc2C(O)=C1CCCc1ccc(C2CCCCC2)cc1 = inactive
16. CC(=O)/C=C/C1=C(c2csc3ccccc23)c2ccccc2CC1 = inactive
17. C=C1SC(=Nc2ccccc2Cl)N(C(=O)c2sc3ccccc3c2Cl)C12CCCCC2 = inactive
18. O=C(c1ccco1)c1c(C(F)(F)F)n([O-])c2cc(C(F)(F)F)ccc2[n+]1=O = inactive
19. COc1ccc(NC(=O)c2sc3nc(C)c(C(=O)/C=C/c4cccc(OC)c4)cc3c2N)cc1 = inactive
